# System: Kinetic aqueous solubility, PBS pH 7.4, LC-UV/MS
# Experiment Notes: Inhibitors of Cruzain: Aqueous Profiling Assay
Parameter: solubility

Lab note: measured solubility of Cc1ccc(OCCn2c(CCNC(=O)C3CCCCC3)nc3ccccc32)cc1 was 5 µM
